Each recorded value in this set is attributed to patent US20200283483A1.

Target Entity: T1, human αvβ6-Integrin (human, UniProt P06756 31-992; P18564 22-707)
T1 construct: soluble integrin bought from R&D
T1 sequence (P06756 31-992 limits assumed, chain 1 of 2): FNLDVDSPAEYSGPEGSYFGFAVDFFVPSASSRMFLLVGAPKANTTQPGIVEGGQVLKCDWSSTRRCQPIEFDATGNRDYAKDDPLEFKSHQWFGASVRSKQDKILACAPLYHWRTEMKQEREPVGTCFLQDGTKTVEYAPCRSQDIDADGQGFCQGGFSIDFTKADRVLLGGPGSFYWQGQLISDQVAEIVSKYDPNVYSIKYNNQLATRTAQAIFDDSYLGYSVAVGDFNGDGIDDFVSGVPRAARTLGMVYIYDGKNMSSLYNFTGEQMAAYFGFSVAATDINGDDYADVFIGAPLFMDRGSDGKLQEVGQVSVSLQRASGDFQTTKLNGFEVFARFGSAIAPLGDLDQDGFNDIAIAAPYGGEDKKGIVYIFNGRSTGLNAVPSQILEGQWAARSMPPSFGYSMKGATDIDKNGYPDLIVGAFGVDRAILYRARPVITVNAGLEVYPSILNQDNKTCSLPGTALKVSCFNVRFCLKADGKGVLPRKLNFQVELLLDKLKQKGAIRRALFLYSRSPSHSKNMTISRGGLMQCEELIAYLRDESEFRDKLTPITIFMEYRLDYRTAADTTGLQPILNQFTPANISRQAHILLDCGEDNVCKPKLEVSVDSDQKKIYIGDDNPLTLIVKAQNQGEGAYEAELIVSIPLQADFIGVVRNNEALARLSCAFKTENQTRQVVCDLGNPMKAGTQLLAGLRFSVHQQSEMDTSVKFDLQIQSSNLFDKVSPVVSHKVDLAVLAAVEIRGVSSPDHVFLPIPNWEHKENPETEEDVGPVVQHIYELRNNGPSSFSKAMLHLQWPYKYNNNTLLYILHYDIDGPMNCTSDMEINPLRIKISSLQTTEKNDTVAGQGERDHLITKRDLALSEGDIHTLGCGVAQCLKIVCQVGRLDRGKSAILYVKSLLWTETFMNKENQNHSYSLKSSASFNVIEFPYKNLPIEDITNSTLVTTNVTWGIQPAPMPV
T1 sequence (P18564 22-707 limits assumed, chain 2 of 2): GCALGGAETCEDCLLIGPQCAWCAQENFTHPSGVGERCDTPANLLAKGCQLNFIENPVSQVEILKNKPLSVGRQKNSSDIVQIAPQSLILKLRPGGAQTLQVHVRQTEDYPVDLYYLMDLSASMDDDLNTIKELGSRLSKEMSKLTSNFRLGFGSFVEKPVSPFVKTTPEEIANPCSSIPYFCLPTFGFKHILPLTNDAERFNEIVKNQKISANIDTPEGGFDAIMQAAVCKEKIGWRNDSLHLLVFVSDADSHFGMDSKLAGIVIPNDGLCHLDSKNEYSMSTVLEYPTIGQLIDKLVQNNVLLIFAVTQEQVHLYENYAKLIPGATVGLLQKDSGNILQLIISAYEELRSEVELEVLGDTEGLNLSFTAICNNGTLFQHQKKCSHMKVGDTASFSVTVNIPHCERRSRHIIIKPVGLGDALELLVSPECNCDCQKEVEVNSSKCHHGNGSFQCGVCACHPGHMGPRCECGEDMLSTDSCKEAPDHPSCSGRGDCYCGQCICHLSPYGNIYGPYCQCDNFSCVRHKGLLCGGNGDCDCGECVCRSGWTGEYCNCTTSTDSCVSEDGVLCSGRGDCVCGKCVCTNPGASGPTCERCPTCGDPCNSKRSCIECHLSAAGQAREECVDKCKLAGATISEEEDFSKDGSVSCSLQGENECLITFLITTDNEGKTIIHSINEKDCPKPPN
Method Description: solid-phase competition ELISA, soluble αvβ6 on coated LAP (TGF-β)
Square brackets hold non-standard residues; d marks the D form. dNMeF = CN[C@H](Cc1ccccc1)C(=O)O; NMeA = CN[C@@H](C)C(=O)O
Reported Endpoint: pIC50
Recall that pIC50 is obtained by taking minus log10 of the concentration measured in molar.

Quick one: pIC50 for cyclo([dNMeF]RGDA[NMeA]) (scaffold NMe(1,6)) [peptide #30 c(*fRGDA*A)] ?
6.92
